The reported measurements were obtained from the supplement of paper PMC7877785.

METHOD SUMMARY: self-splicing fitness, log relative to wild type (ln ratio); higher = more splicing; Tetrahymena group I intron in knt gene, E. coli kanamycin selection, DiMSum; sequences stand for … in CUCUCU…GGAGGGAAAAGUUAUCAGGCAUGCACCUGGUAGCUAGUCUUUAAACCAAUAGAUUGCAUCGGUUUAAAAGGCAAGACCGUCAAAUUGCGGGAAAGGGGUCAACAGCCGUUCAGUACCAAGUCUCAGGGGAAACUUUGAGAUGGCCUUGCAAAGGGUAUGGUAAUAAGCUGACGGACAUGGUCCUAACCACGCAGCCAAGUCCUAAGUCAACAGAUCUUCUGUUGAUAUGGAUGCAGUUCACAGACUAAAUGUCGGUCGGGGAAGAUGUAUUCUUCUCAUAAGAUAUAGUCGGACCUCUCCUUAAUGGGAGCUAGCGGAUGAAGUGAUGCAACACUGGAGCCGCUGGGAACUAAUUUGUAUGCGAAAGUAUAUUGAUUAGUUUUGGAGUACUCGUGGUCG;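 also: selection with 25 µg/mL kanamycin versus none on LB agar overnight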
CONDITION LABEL: 30 °C
EXPERIMENTAL ENDPOINT: self-splicing fitness (ln)
Answers are plain numbers.

Could I get self-splicing fitness (ln) for every one of these entries?
1. AUAUAGCAAUAUUACGCGCU
2. CUGGAGCAAUAUUACGUGUC
3. UCGCAGCAAUAUUACGCCCA
4. CGGCAGCAAUAUUACGCCCC
5. GAUAAGCAAUAUUACGCGUU
6. GAAUAGCAAUAUUACGCGGC
7. GACAAGCAAUAUUACGGAAC

Response:
[0.0604, -3.17, -0.827, -1.66, -2.05, -1.42, -1.94]
